Recorded IC50 by entry
- Tested on: HEK293
- test-protocol: Antiproliferative activity against human HEK293 cells after 48 hrs by MTT assay
- Assay type: cell-based
- condition-summary: HEK293, 48 h
Give just the number in µM; leave the unit off.

Reference set (5 entries):
compound="COc1ccc(C(=O)CC(Sc2ccccc2)c2ccc(OC)cc2)cc1 (stereo not drawn)" recorded_metric=IC50 measured_result=38.2
compound="CCSC(CC(=O)c1ccc(OCCN(C)C)cc1)c1ccccc1 (stereo not drawn)" recorded_metric=IC50 measured_result=32.8
compound="O=C(CC(Sc1ccc(O)cc1)c1cccc(O)c1)c1ccc(OCCN2CCCCC2)cc1 (stereo not drawn)" recorded_metric=IC50 measured_result=65.8
compound="O=C(CC(Sc1ccc(O)cc1)c1ccccc1)c1ccc(OCCN2CCCCC2)cc1 (stereo not drawn)" recorded_metric=IC50 measured_result=75.2
compound="O=C(CC(Sc1ccccc1)c1ccc(O)cc1)c1ccccc1 (stereo not drawn)" recorded_metric=IC50 measured_result=31.4

Sample O=C(CC(Sc1ccc(O)cc1)c1ccc(O)cc1)c1ccc(OCCN2CCCC2)cc1 (stereo not drawn) ; IC50 observed: 28.7

Sample CCSC(CC(=O)c1ccc(OCCN2CCCC2)cc1)c1ccccc1 (stereo not drawn) ; IC50 observed: 29.2

Sample O=C(CC(Sc1ccc(O)cc1)c1ccccc1)c1ccc(OCCN2CCCC2)cc1 (stereo not drawn) ; IC50 observed: 27.5

* * *

- Species: Rattus norvegicus
- test-protocol: Displacement of [3H]-estradiol from estrogen receptor in rat uteri after 18 hrs by scintillation counting relative to 17beta-estradiol
recorded-metric: RBA (%)
Give just the number in %; leave the unit off.

compound="O=C(CC(Sc1ccc(O)cc1)c1ccccc1)c1ccc(OCCN2CCCC2)cc1 (stereo not given)" measured_result=0.67
compound="O=C(CC(Sc1ccc(O)cc1)c1cccc(O)c1)c1ccc(OCCN2CCCCC2)cc1 (stereo not given)" measured_result=4.47
compound="O=C(CC(Sc1ccc(O)cc1)c1ccccc1)c1ccc(OCCN2CCCCC2)cc1 (stereo not given)" measured_result=5.27
compound="O=C(CC(Sc1ccccc1)c1ccccc1)c1ccccc1 (stereo not given)" measured_result=1.25

# context switch: different compound, same RBA
Sample CC/C(=C(\c1ccccc1)c1ccc(OCCN(C)C)cc1)c1ccccc1 [TAMOXIFEN] ; RBA observed: 2.2

* * *

- Species: Rattus norvegicus
- test-protocol: Displacement of [3H]-estradiol from estrogen receptor in rat uteri after 18 hrs by scintillation counting relative to 17beta-estradiol
recorded-metric: RBA (%)
Give just the number in %; leave the unit off.

compound="O=C(CC(Sc1ccc(O)cc1)c1ccc(O)cc1)c1ccc(OCCN2CCCC2)cc1 (stereo not drawn)" recorded_metric=RBA unit_annotation=% measured_result=5.15

Sample CCSC(CC(=O)c1ccc(OCCN2CCCCC2)cc1)c1ccccc1 (stereo not drawn) ; RBA observed: 0.175

Sample COc1ccc(C(CC(=O)c2ccccc2)Sc2ccccc2)cc1 (stereo not drawn) ; RBA observed: 2.67

Sample CCSC(CC(=O)c1ccc(OCCN2CCCC2)cc1)c1ccccc1 (stereo not drawn) ; RBA observed: 0.191

Sample Cc1ccc(SC(CC(=O)c2ccc(OCCN(C)C)cc2)c2ccccc2)cc1 (stereo not drawn) ; RBA observed: 0.245

Sample CN(C)CCOc1ccc(C(=O)CC(Sc2ccccc2)c2ccccc2)cc1 (stereo not drawn) ; RBA observed: 0.157

Sample CCSC(CC(=O)c1ccc(OCCN(C)C)cc1)c1ccccc1 (stereo not drawn) ; RBA observed: 0.246

Sample COc1ccc(C(=O)CC(Sc2ccccc2)c2ccc(OC)cc2)cc1 (stereo not drawn) ; RBA observed: 2.21
